- test target: T1, di muNKG2D ECD Fc avi (murine, biotinylated at the avi-tag)
- T1 construct: Dimeric fusion of murine NKG2D ECD to the C-terminus of an avi-tagged human IgG1 Fc; also called recombinant murine NKG2D
- T1 sequence (chain, as listed by the source limits assumed): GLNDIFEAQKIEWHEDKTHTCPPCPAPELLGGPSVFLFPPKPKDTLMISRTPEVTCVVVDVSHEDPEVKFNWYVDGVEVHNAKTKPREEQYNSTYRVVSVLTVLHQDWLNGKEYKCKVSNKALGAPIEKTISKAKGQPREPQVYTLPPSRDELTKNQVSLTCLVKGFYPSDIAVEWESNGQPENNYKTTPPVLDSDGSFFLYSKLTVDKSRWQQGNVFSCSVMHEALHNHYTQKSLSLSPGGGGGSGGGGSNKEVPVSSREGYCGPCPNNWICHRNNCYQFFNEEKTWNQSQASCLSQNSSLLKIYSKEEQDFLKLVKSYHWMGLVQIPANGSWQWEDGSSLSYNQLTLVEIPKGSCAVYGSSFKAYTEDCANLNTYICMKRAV
- test method notes: ELISA; biotinylated antigen on streptavidin plate
Reported values of OD max for individual entries
quantity kind: OD max

INSERT INTO measurements (binder, result) VALUES
  ('anti-NKG2D antibody clone 013 (antibody, V domains shown, From transgenic rabbits) VH: EQSGGGAGGGLVKPGGSLELCCKASGFDFSIYWMSWVRQSPGKGLEWIGRIYGGSSDYTAYASWVNGRFTLSRDIDQSTGCLQLNSLTAADTAMYYCVRLNPSFSRSFDYWGQGTLVTVSS VL: DIQMTQSPSSVSASVGDRVTITCRASQGIFSWLVWYQQKPGKAPELLMYGASTLQSGVPSRFSGSGSGTDFTLTISSLQPEDFATYYCQQGYSTPYTFGQGTKVEIK', '0.4 OD'),
  ('anti-NKG2D antibody clone 296 (antibody, V domains shown, From transgenic rabbits) VH: EVQLLESGGGLVQPGGSLRLSCAASGFTFSSYAMSWVRQAPGKGLEWVSAIGIGGGGTYYADSVKGRFTISRDNSKNTLYLQMNSLRAEDTAVYHCAKGASFDFINFFPYWGQGTLVTVSS VL: DIQMTQSPSSLSASVGDRVTITCRASQGISNDLAWYQQKPGKAPKLLIYAASSLQSGVPSRFSGSGSGTDFTLTISSLQPEDFATYYCQQTYSTPLTFGGGTKVEIK', '0.3 OD'),
  ('anti-NKG2D antibody clone 014 (antibody, V domains shown, From transgenic rabbits) VH: EVQLLESGGGLVQPGGSLRLSCAASGFTFSSYAMSWVRQAPGKGLEWVSRISDGGGTIYYTDSVKGRFTIARDNSKNTLYLEMKSLRAEDTAVYYCAKHRLYDSIGAYAMDVWGQGTTVAVSS VL: DIQMTQSPSSLSASVGDRVTITCRASQSISSYLNWYQQKPGKAPKLLIYDASNLETGVPSRFSGSGSGTDFTLTISSLQPEDFATYYCQQANSFPLTFGPGTKVDIK', '0.1 OD');
